The origin of these recorded values is ChEMBL document CHEMBL1129408.

- target: Sodium-dependent serotonin transporter (Rattus norvegicus, UniProt P31652)
- Sequence (P31652 whole entry): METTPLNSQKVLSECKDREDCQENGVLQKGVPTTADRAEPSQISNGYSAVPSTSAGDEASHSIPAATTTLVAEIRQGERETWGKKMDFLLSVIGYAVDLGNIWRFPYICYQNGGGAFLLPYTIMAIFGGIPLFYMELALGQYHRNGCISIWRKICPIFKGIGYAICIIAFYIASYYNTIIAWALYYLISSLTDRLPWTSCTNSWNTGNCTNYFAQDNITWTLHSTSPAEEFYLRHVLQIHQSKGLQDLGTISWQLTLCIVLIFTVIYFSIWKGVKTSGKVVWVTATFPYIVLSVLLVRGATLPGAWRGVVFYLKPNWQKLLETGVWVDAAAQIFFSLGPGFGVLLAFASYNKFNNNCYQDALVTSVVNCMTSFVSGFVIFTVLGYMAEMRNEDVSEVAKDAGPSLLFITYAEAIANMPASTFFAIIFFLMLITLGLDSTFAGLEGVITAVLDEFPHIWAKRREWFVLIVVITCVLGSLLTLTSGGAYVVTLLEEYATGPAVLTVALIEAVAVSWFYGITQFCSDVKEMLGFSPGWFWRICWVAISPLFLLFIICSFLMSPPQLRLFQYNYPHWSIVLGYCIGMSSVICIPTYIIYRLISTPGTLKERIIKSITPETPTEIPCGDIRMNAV
- assay-method-text: Inhibition of [3H]5-HT reuptake at rat serotonin transporter
endpoint: IC50 (µM)
# unit: µM | format: bare number

Which IC50 is listed for "Oc1cccc(CCCNC[C@@H]2CCCN2CCOC(c2ccccc2)c2ccccc2)c1" ?
0.857

====

- target: Sodium-dependent dopamine transporter (Rattus norvegicus)
- assay-method-text: Binding against Dopamine transporter using radioligand as [3H]GBR 12935
Entries annotated with measured IC50
Give a bare numeral; the unit nM is implied.

Worked examples follow.
{"smiles-entry": "c1ccc(C(OCCN2CCN(CCOC(c3ccccc3)c3ccccc3)CC2)c2ccccc2)cc1", "units-text": "nM", "experimental-result": 9.3}
{"smiles-entry": "c1ccc(CCCNCCCCNCCOC(c2ccccc2)c2ccccc2)cc1", "units-text": "nM", "experimental-result": 80}
{"smiles-entry": "c1ccc(CCCN2CCN(CCCc3ccccc3)CC2)cc1", "units-text": "nM", "experimental-result": 7760}
{"smiles-entry": "Fc1ccc(C(OCCN2CCCN(CCCc3ccccc3)CC2)c2ccc(F)cc2)cc1", "units-text": "nM", "experimental-result": 4.4}
{"smiles-entry": "Fc1ccc(C(OCCN2CCC[C@H]2CNCCCc2ccccc2)c2ccc(F)cc2)cc1", "units-text": "nM", "experimental-result": 104}

Quick one: IC50 for "Fc1ccc(C(OCCN2CCNCC2)c2ccc(F)cc2)cc1" ?
104

Next entry: "Fc1ccc(C(OCCN2CCCN(C/C=C/c3ccccc3)CC2)c2ccc(F)cc2)cc1"
2.6

Now this one: "C[C@@H]1CN(CCOC(c2ccccc2)c2ccccc2)[C@@H](C)CN1CCCc1ccccc1"
21

# iterate: "Fc1ccc(C(OCCN2CCN(CCOC(c3ccc(F)cc3)c3ccc(F)cc3)CC2)c2ccc(F)cc2)cc1"
7.3

Next: "C[C@@H]1CN(CCOC(c2ccc(F)cc2)c2ccc(F)cc2)[C@@H](C)CN1CCCc1ccccc1"
40

Now the same for "C[C@@H]1CN(CCOC(c2ccc(F)cc2)c2ccc(F)cc2)[C@@H](C)CN1C/C=C/c1ccccc1"
23

====

- target: Monoamine transporters; serotonin & dopamine (Rattus norvegicus) (UniProt P31652+P23977)
- Sequence (P31652 whole entry, looked up, one chain of several): as the sequence (P31652 whole entry) above
- assay-method-text: Ratio of binding affinities of Serotonin transporter vs Dopamine transporter reuptake
- Assay type: protein assay
Category key, based on recorded Ratio: low class (below 20), middle class (20 to below 70), high class (70 or more)

{"compound": "C[C@@H]1CN(CCOC(c2ccccc2)c2ccccc2)[C@@H](C)CN1CCOC(c1ccccc1)c1ccccc1", "qualitative-label": "low class"}
{"compound": "c1ccc(CCCN2CCN(CCCc3ccccc3)CC2)cc1", "qualitative-label": "low class"}
{"compound": "C[C@@H]1CN(CCOC(c2ccc(F)cc2)c2ccc(F)cc2)[C@@H](C)CN1C/C=C/c1ccccc1", "qualitative-label": "middle class"}
{"compound": "C[C@@H]1CN(CCOC(c2ccccc2)c2ccccc2)[C@@H](C)CN1C/C=C/c1ccccc1", "qualitative-label": "high class"}
{"compound": "c1ccc(CCCNC[C@@H]2CCCN2CCOC(c2ccccc2)c2ccccc2)cc1", "qualitative-label": "high class"}

Lab log: "Fc1ccc(C(OCCN2CCC[C@H]2CNCCCc2ccccc2)c2ccc(F)cc2)cc1" — assign Ratio category
high class

Also "c1ccc(C(OCCN2CCCNCC2)c2ccccc2)cc1" ?
middle class

Also, "Fc1ccc(C(OCCN2CCNCC2)c2ccc(F)cc2)cc1" please.
low class

Try the compound "C[C@@H]1CN(CCOC(c2ccc(F)cc2)c2ccc(F)cc2)[C@@H](C)CN1CCCc1ccccc1"
middle class

Same again, this time with c1ccc(CCCN2CCCCC(NCCOC(c3ccccc3)c3ccccc3)C2)cc1 (centres undefined)
middle class

Now consider "C[C@@H]1CN(CCOC(c2ccc(F)cc2)c2ccc(F)cc2)[C@@H](C)CN1CCOC(c1ccc(F)cc1)c1ccc(F)cc1" and answer again.
low class

Continue with "CC1(C)CN(CCCc2ccccc2)CCN(CCOC(c2ccccc2)c2ccccc2)C1"
middle class

And "c1ccc(CCCN2CCCCN(CCOC(c3ccccc3)c3ccccc3)CC2)cc1" ?
low class

====

- target: UniProt:P23977
- assay-method-text: Compound was tested for binding affinity against dopamine transporter using radioligand as [3H]-RTI 55
endpoint: pIC50
Scale: pIC50 equals -log10([C]), with [C] in mol/L.

Give the reported pIC50 for "C[C@@H]1CN(CCOC(c2ccc(F)cc2)c2ccc(F)cc2)[C@@H](C)CN1" (system: UniProt:P23977).
7.36

====

- target: Sodium-dependent dopamine transporter (Rattus norvegicus)
- assay-method-text: Inhibition of dopamine DA reuptake
Hi! Could you tag entries with IC50 below 70 nM as Yes, and those at or above as No? Much appreciated.

{"compound": "c1ccc(CCCNC[C@@H]2CCCN2CCOC(c2ccccc2)c2ccccc2)cc1", "qualitative-label": "Yes"}

Please let me know if "c1ccc(CCCN2CCCN(CCOC(c3ccccc3)c3ccccc3)CC2)cc1" shows IC50 below 70 nM.
Yes

Can you handle "C[C@@H]1CN(CCOC(c2ccc(F)cc2)c2ccc(F)cc2)[C@@H](C)CN1C/C=C/c1ccccc1" next?
Yes

Here is the next compound: "C[C@@H]1CN(CCCc2ccccc2)[C@@H](C)CN1"
No

Repeat with "Fc1ccc(C(OCCN2CCCN(C/C=C/c3ccccc3)CC2)c2ccc(F)cc2)cc1"
Yes

Please do the same for "C[C@@H]1CN(CCOC(c2ccc(F)cc2)c2ccc(F)cc2)[C@@H](C)CN1CCCc1ccccc1" as well.
Yes

Same lookup for c1ccc(CCCNC2CCCCN(CCOC(c3ccccc3)c3ccccc3)C2)cc1 (stereo not drawn) , please.
Yes

====

- target: Sodium-dependent dopamine transporter (Rattus norvegicus, UniProt P23977)
- Sequence (P23977 whole entry): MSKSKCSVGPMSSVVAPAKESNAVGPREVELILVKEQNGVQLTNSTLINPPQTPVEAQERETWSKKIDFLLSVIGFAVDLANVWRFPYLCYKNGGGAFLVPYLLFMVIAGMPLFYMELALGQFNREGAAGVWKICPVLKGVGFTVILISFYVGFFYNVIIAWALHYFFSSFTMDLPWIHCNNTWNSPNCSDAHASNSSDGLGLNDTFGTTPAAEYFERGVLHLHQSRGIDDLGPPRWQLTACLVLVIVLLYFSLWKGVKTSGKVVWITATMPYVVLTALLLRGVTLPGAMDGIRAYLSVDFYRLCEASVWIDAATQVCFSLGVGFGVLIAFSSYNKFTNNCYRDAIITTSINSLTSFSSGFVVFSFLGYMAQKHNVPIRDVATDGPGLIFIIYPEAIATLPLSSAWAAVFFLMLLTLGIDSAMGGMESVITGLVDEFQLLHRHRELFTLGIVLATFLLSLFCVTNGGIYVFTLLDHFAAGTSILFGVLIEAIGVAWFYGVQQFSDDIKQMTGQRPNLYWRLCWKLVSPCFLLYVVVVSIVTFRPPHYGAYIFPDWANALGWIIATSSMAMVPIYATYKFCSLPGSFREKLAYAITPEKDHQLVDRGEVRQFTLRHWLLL
- assay-method-text: Binding affinity against dopamine transporter using radioligand as [3H]GBR 12935
// values below are reported pIC50
Worth noting: pIC50 values are minus log10 of concentrations stated in mol/L.

{"smiles-entry": "C[C@@H]1CN(CCOC(c2ccccc2)c2ccccc2)[C@@H](C)CN1CCOC(c1ccccc1)c1ccccc1", "experimental-result": 7.48}
{"smiles-entry": "C[C@@H]1CN(CCOC(c2ccc(F)cc2)c2ccc(F)cc2)[C@@H](C)CN1", "experimental-result": 6.97}
{"smiles-entry": "c1ccc(C(OCCN2CCCNCC2)c2ccccc2)cc1", "experimental-result": 5.87}
{"smiles-entry": "c1ccc(CCCNC[C@@H]2CCCN2CCOC(c2ccccc2)c2ccccc2)cc1", "experimental-result": 8.29}
{"smiles-entry": "CNCCN(C)CCOC(c1ccccc1)c1ccccc1", "experimental-result": 6.08}

Kindly state the measured pIC50 obtained for "C[C@@H]1CN(CCOC(c2ccc(F)cc2)c2ccc(F)cc2)[C@@H](C)CN1CCOC(c1ccc(F)cc1)c1ccc(F)cc1" with Sodium-dependent dopamine transporter (Rattus norvegicus, UniProt P23977).
7.44

# repeat for "NCCCCNCCOC(c1ccccc1)c1ccccc1"
5.01

Continue with "c1ccc(CCCN2CCCN(CCOC(c3ccccc3)c3ccccc3)CC2)cc1"
8.10

Please do the same for "C[C@@H]1CN(CCOC(c2ccccc2)c2ccccc2)[C@@H](C)CN1" as well.
6.00

Lookup "C(=C\c1ccccc1)/CN1CCCN(CCOC(c2ccccc2)c2ccccc2)CC1"
8.07

Then what about the compound "C[C@@H]1CN(CCOC(c2ccccc2)c2ccccc2)[C@@H](C)CN1C/C=C/c1ccccc1" ?
6.99

Field entry: "Oc1cccc(CCCNC[C@@H]2CCCN2CCOC(c2ccccc2)c2ccccc2)c1"
6.65

====

- target: Sodium-dependent dopamine transporter (Rattus norvegicus)
- assay-method-text: Binding affinity against dopamine transporter using radioligand as [3H]GBR 12935
Each item that follows carries a reported IC50.
Report the value in µM with no unit label.

{"compound": "CN(CCCc1ccccc1)CCN(C)CCOC(c1ccccc1)c1ccccc1", "target": "Sodium-dependent dopamine transporter (Rattus norvegicus)", "IC50 (µM)": 0.027}
{"compound": "c1ccc(CCCN2CCCCN(CCOC(c3ccccc3)c3ccccc3)CC2)cc1", "target": "Sodium-dependent dopamine transporter (Rattus norvegicus)", "IC50 (µM)": 0.864}
{"compound": "c1ccc(CCCN2CCCCC(NCCOC(c3ccccc3)c3ccccc3)C2)cc1 (stereo unspecified)", "target": "Sodium-dependent dopamine transporter (Rattus norvegicus)", "IC50 (µM)": 0.074}
{"compound": "CC(C)(CNCCCc1ccccc1)CNCCOC(c1ccccc1)c1ccccc1", "target": "Sodium-dependent dopamine transporter (Rattus norvegicus)", "IC50 (µM)": 0.169}
{"compound": "c1ccc(CCCNC2CCCCN(CCOC(c3ccccc3)c3ccccc3)C2)cc1 (stereo unspecified)", "target": "Sodium-dependent dopamine transporter (Rattus norvegicus)", "IC50 (µM)": 0.02}
{"compound": "C[C@@H]1CN(CCCc2ccccc2)[C@@H](C)CN1CCCc1ccccc1", "target": "Sodium-dependent dopamine transporter (Rattus norvegicus)", "IC50 (µM)": 9.94}

Given "c1ccc(CCCNC[C@H]2CCCN2CCOC(c2ccccc2)c2ccccc2)cc1" , state its recorded IC50.
0.747

Same lookup for "c1ccc(C(OCCN2CCNCC2)c2ccccc2)cc1" , please.
0.11

Again, but for "CC1(C)CN(CCCc2ccccc2)CCN(CCOC(c2ccccc2)c2ccccc2)C1"
0.286

Would you mind doing "Fc1ccc(C(OCCN2CCCNCC2)c2ccc(F)cc2)cc1" as well?
0.143

// next record "CC(C)(CN)CNCCOC(c1ccccc1)c1ccccc1"
1.46
